Tested system: T1, GRIP1_4, Q9Y3R0
T1 sequence (Q9Y3R0 467-571, limits assumed, looked up): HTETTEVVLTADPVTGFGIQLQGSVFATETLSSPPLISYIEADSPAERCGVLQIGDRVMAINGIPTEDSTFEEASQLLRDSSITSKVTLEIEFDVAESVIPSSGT
Assay procedure: holdup assay
Parameters: key: below the threshold = too weak to quantify, mostly under pKd 3.1 to 4
Experimental parameters: plain residues with an end cap or a label only (N-terminal biotin on a linker: ttds)
Measured parameter: pKd

RSLEEEESQL [GRASP, Q7Z6J2] :: 3.5
TVASEKESVM [SLC1A5, Q15758] :: below the threshold
SSRTRRETQL [HPV16-E6, P03126] :: below the threshold
VLRLQSETSV [VANGL1, Q8TAA9] :: below the threshold
QSARYRDTEL [TJP2, Q9UDY2] :: below the threshold
IYVPEAQTRL [DLGAP4, Q9Y2H0] :: below the threshold
SRPQRTQTQV [HPV67-E6, A4U7F2] :: below the threshold
STLTIFETAL [ABCC4, O15439] :: below the threshold
PKTPPTDTSV [KIR3DL3, Q8N743] :: below the threshold
GQDSREETQL [KCNT2, Q6UVM3] :: below the threshold
SVWLRKETRV [CYSLTR2, Q9NS75] :: below the threshold
IDNDTESTAL [ARHGAP17, Q68EM7] :: below the threshold
ERKLSSESQV [LRP4, O75096] :: below the threshold
